Test system: liver cancer (3 cell lines)
Test: CellTiter-Glo Viability Assay, liver cancer
Format: cell-based
Conditions: Homo sapiens, SNU-398; SNU398 cell line; inhibition of cancer cell proliferation; read-out: Liver cancer, EC50 SNU398
pEC50: −log10 of the molar value.
Measure Name: pEC50

> print(dat)
                    structure.smiles.string  measured.result
1  CN1CCC2(CC1)CN(c1cc(C(=O)Nc3cc4cc(-c5cnn(C)c5)ccc4cn3)ccn1)C2             7.32
2  Cc1ncc(C(=O)Nc2cc3nc(-c4cnc(C)n4C)ccc3cn2)s1             6.91
3  CN1CCC(Oc2ccc(NC(=O)c3n[nH]c4cc(F)c(-c5cnn(C)c5)cc34)cc2)CC1             6.35
4  O=C1COc2cccc(c2)-c2cncc3[nH]c(nc23)-c2n[nH]c3ccc(cc23)-c2cncc(c2)N1             6.80
5  CN1CCN(c2cc(C(=O)Nc3cc4cc(-c5cnn(C)c5N)ccc4cn3)ccn2)CC1             7.47
6  CN1CCN(c2cc(C(=O)Nc3cc4cc(-c5cnn(C)c5)c(F)cc4cn3)ccn2)CC1             6.78

I: O=C1CCc2cccc(c2)-c2cncc(c2)NC(=O)c2n[nH]c3ccc(cc23)-c2cncc(c2)CN1
II: Cc1n[nH]c2ccc(-c3cncc(N[C@H]4CC[C@@H](N)CC4)n3)cc12
Query block: Pick one: I or II . Which one has the lower reported pEC50? Write down the label attached to your selection.
Result block: I
(I: 6.33, II: 7.23)

* * *

Molecular target: cyclin-dependent kinase 1 (CDK1) (Homo sapiens, UniProt P06493)
Sequence (P06493 whole entry): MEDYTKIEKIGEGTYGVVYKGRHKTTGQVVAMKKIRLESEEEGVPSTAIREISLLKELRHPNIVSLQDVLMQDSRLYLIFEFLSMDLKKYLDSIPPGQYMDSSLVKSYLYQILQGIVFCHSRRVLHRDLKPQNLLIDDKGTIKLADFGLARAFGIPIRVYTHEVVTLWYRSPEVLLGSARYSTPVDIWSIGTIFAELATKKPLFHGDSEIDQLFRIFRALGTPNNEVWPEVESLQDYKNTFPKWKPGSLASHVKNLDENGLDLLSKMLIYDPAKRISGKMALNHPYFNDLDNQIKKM
Sequence (P14635 whole entry partner): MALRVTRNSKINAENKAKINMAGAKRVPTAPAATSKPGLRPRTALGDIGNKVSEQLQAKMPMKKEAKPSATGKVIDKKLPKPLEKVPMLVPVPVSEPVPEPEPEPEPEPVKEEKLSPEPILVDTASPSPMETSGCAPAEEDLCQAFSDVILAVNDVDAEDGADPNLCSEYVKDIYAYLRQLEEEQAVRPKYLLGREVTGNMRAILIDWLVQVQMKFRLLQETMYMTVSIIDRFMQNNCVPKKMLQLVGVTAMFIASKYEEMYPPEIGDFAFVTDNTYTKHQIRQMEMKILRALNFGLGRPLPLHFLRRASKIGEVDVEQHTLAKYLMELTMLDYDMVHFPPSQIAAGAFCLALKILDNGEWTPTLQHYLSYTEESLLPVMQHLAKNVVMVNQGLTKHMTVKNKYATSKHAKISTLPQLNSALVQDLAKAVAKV
Measure Name: pIC50
Quick note: pIC50 values are minus log10 of concentrations in mol/L.

Query block: Looking for the measured pIC50 of CN1CCN(c2cc(C(=O)Nc3cc4cc(-c5cnn(C)c5)ccc4cn3)ccn2)CC1 , can you help?
Result block: 5.96

* * *

Test system: haematopoietic & lymphoid tumors (13 cell lines)
Experiment: CellTiter-Glo Viability Assay, haematopoietic & lymphoid tumors
Assay type: cell-based
Details: Homo sapiens; TOLEDO cell line; inhibition of cancer cell proliferation; read-out: Haematopoietic & Lymphoid tumors, EC50 (μM) TOLEDO
Measure Name: EC50 (µM)

I: CN1CCC(Oc2ccc(NC(=O)c3n[nH]c4cc(F)c(-c5cnn(C)c5)cc34)cc2)CC1 [Compound 61]
II: COc1ccc(NC(=O)c2n[nH]c3ccc(-c4cncc(CN5CCCCC5)c4)cc23)cn1 [Compound 59]
Query block: Pick one: I or II . Which one has the lower reported EC50? Write down the label attached to your selection.
Result block: II
(II: 0.121 µM, I: 0.182 µM)

* * *

Target: CLK3 (Homo sapiens, UniProt P49761)
Sequence (P49761 whole entry): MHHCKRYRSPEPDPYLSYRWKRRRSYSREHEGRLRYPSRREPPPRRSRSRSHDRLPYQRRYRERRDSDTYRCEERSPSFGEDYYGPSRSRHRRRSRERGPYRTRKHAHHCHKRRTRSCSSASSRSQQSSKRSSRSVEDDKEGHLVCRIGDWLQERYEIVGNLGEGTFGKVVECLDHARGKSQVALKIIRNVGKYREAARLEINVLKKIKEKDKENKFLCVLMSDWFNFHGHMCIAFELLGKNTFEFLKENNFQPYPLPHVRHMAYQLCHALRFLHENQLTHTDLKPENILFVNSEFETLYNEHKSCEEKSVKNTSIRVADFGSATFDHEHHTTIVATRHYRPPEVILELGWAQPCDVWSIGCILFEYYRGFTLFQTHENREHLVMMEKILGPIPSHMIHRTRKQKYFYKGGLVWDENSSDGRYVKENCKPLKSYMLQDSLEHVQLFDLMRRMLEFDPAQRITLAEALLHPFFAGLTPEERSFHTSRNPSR
Assay: CLK3 kinase activity assay (Z-lyte, Ser/Thr 18 peptide)
Measure Name: EC50 (nM)

> print(dat)
                                   molecule  value.unit  measured.result
1  CN1CCC(n2cc(C(=O)Nc3cc4cc(-c5cncc6[nH]ccc56)ccc4cn3)cn2)CC1 [Compound 23]          nM                9
2  O=C(Nc1cc2cc(-c3cncc(NC4CCNC[C@@H]4F)n3)ccc2cn1)C1CC1 (stereo partly shown) [Compound 22]          nM               18
3  Cc1ncc(-c2cnc3[nH]nc(-c4cc5c(-c6cc(F)cc(NCCN(C)C)c6)ccnc5[nH]4)c3c2)n1C [Compound 52]          nM             26.6
4  CS(=O)(=O)NCc1cc(F)cc(-c2nccc3[nH]c(-c4n[nH]c5ccc(-c6cncc(NC(=O)C7CCC7)c6)cc45)cc23)c1 [Compound 53]          nM             27.5

P: Cc1cc2ncc(-c3ccc4cnc(NC(=O)c5ccnc(N6CCN(C)CC6)c5)cc4c3)cc2[nH]1 [Compound 87]
Q: Cc1n[nH]c2ccc(-c3cncc(OC4CCNCC4(F)F)n3)cc12 (stereo not shown) [Compound 28]
Query block: Pick one: P or Q . Which one has the lower reported EC50? Write down the label attached to your selection.
Result block: P
(P: 38.2 nM, Q: 313 nM)

* * *

System: SW480
Assay: CellTiter-Blue Cell Viability Assay
Format: cell-based
Conditions: Homo sapiens, 96 h; SW480, KRASmut, APCmut, 4 days
Measure Name: EC50 (nM)
All answers are understood in nM, so give the number only.

Query block: Looking for the measured EC50 of CN1CCN(c2cc(C(=O)Nc3cc4cc(-c5cnn(C)c5)ccc4cn3)ccn2)CC1 , can you help?
Result block: 85

* * *

System: haematopoietic & lymphoid tumors (13 cell lines)
Experiment: CellTiter-Glo Viability Assay, haematopoietic & lymphoid tumors
Format: cell-based
Settings: Homo sapiens; JeKo-1 cell line; inhibition of cancer cell proliferation; read-out: Haematopoietic & Lymphoid tumors, EC50 (μM) JeKo-1
Measure Name: EC50 (µM)

> print(dat)
                    structure.smiles.string  value.unit  measured.result
1  CN1CCC2(CC1)CN(c1cc(C(=O)Nc3cc4cc(-c5cnn(C)c5)ccc4cn3)ccn1)C2          µM            0.062
2  Cc1n[nH]c2cc(F)c(-c3cncc(CN4CCNCC4)c3)cc12          µM             1.49
3  O=C1CCc2cccc(c2)-c2cncc(c2)NC(=O)c2n[nH]c3ccc(cc23)-c2cncc(c2)CN1          µM            0.452
4  Cc1n[nH]c2ccc(-c3cncc(N[C@H]4CC[C@H](O)CC4)n3)cc12          µM            0.243
5  O=C(Nc1ccc(OCCN2CCCC2)cc1)c1n[nH]cc1/C=C/c1cccnc1          µM             2.18

P: CC(C)CC(=O)Nc1cncc(-c2ccc3[nH]nc(-c4cc5c(N6CCCCC6)cncc5[nH]4)c3c2)c1
Q: CN1CCN(c2cc(C(=O)Nc3cc4cc(-c5cnn(C)c5)c(F)cc4cn3)ccn2)CC1
Query block: Which item exceeds the other in EC50, P or Q ? Write down the label attached to your selection.
Result block: Q

* * *

System: MCF7
Assay: CellTiter-Glo Viability Assay, breast cancer
Assay type: cell-based
Conditions: Homo sapiens, MCF7, 96 h
Measure Name: pEC50
Quick note: pEC50 values are minus log10 of concentrations in mol/L.

> print(dat)
                                   compound  study.system  measure.name  measured.result
1  CN1CCN(c2cc(C(=O)Nc3cc4cc(-c5cnn(C)c5)ccc4cn3)ccn2)CC1 [Compound 12]          MCF7         pEC50             6.22
2  CN1CCC(N(C)c2cc(C(=O)Nc3cc4cc(-c5cnn(C)c5)ccc4cn3)ccn2)CC1 [Compound 72]          MCF7         pEC50             6.17

# ---- query compound ----
Query block: Looking for the measured pEC50 of CN1CCN(C(=O)C(C)(C)c2ccc(C(=O)Nc3cn4cc(-c5ccncc5)ccc4n3)cc2)CC1 [Compound 27] , can you help?
Result block: 5.40

* * *

Test system: haematopoietic & lymphoid tumors (13 cell lines)
Assay: CellTiter-Glo Viability Assay, haematopoietic & lymphoid tumors
Type: cell-based
Conditions: Homo sapiens; JeKo-1 cell line; inhibition of cancer cell proliferation; read-out: Haematopoietic & Lymphoid tumors, EC50 (μM) JeKo-1
Measure Name: EC50 (µM)

Illustrative cases are given below, each with its answer.
> print(dat)
                                   molecule  measured.result
1  O=C(Nc1c[nH]nc1-c1nc2c(-c3cccc(F)c3)cncc2[nH]1)c1cccnc1 [Compound 91]            0.008
2  CC(C)Nc1cncc(-c2ccc3cnc(NC(=O)c4cn(C5CCN(CCF)CC5)nn4)cc3c2)n1 [Compound 85]            0.109
3  CN1CCN(c2cc(C(=O)Nc3cc4cc(-c5cn(C)nn5)ccc4cn3)ccn2)CC1 [Compound 14]            0.073
4  CN1CCN(c2cc(Nc3ncc4c(-c5ccc6ncccc6c5)c[nH]c4n3)ccn2)CC1 [Compound 67]            0.139
5  CN1CCC(Oc2ccc(C(=O)Nc3cc4cc(-c5cnn(C)c5)ccc4cn3)cc2)CC1 [Compound 68]            0.176

I: Cn1ncc(-c2ccc3cnc(NC(=O)c4cccc(CN5CCCC5)c4)cc3c2)c1CN1CCCCC1 [Compound 78]
II: O=C1CCc2cccc(c2)-c2cncc3[nH]c(nc23)-c2n[nH]c3ccc(cc23)-c2cncc(c2)N1 [Compound 55]
III: CN(C)C1CCN(c2cc(C(=O)Nc3ncc4ccc(-c5cn(C)nn5)cc4n3)ccn2)CC1 [Compound 80]
Query block: Would you mind ranking these molecules by ascending EC50? Give me the labels in the order the question wants.
Result block: I, II, III
(I: 0.228 µM, II: 0.357 µM, III: 0.731 µM)

Cited source for all entries: patent US20220062240A1
